- test.system: UniProt:Q9NY46
- assay.notes: VIPR optical membrane potential assay, NaV1.3 inhibition
- Format: cell-based
- Parameters: expressed in transfected cells; host or cells: HEK293
- condition.set: activity against NaV 1.3 channel
pIC50: −log10 of the molar value.
recorded.endpoint: pIC50

[
  {
    "structure.notation": "Cc1ccccc1CNCCN1CCc2cc(S(=O)(=O)Nc3nccs3)ccc21",
    "experimental.result": "< 5.30"
  },
  {
    "structure.notation": "O=C(c1ccc(F)cc1F)N1CCc2ccc(S(=O)(=O)Nc3nccs3)cc2C1",
    "experimental.result": "< 5.30"
  },
  {
    "structure.notation": "O=C(CN1CCCc2cc(Cl)ccc21)N1Cc2ccc(S(=O)(=O)Nc3ccncn3)cc2C1",
    "experimental.result": "5.30 to 5.70"
  },
  {
    "structure.notation": "O=C(c1ccc(Cl)cc1Cl)N1CCc2cc(S(=O)(=O)Nc3nccs3)ccc21",
    "experimental.result": "> 5.70"
  },
  {
    "structure.notation": "O=C(N1CCc2cc(S(=O)(=O)Nc3nccs3)ccc21)C1(c2ccccc2)CC1",
    "experimental.result": "> 5.70"
  },
  {
    "structure.notation": "CCc1nnc(NS(=O)(=O)c2ccc3c(c2)CN(C(=O)[C@@H](C)N2CCCc4cc(Cl)ccc42)C3)s1",
    "experimental.result": "5.30 to 5.70"
  },
  {
    "structure.notation": "O=C(ON1Cc2ccc(S(=O)(=O)Nc3nccs3)cc2C1)c1cccc(C(F)(F)F)c1",
    "experimental.result": "> 5.70"
  },
  {
    "structure.notation": "C[C@@H](C(=O)N1Cc2ccc(S(=O)(=O)Nc3ccncn3)cc2C1)n1ccc2c(F)cccc21",
    "experimental.result": "< 5.30"
  },
  {
    "structure.notation": "O=C(c1ccc(Cl)c(Cl)c1)N1CCc2cc(S(=O)(=O)Nc3nccs3)ccc21",
    "experimental.result": "> 5.70"
  },
  {
    "structure.notation": "O=C(Cc1ccc(F)cc1F)N1CCc2cc(S(=O)(=O)Nc3nccs3)ccc21",
    "experimental.result": "> 5.70"
  },
  {
    "structure.notation": "COc1ccc(F)cc1C(=O)N1CCc2cc(S(=O)(=O)Nc3nccs3)ccc21",
    "experimental.result": "5.30 to 5.70"
  },
  {
    "structure.notation": "O=C(COc1ccc(F)cc1)N1Cc2ccc(S(=O)(=O)Nc3nccs3)cc2C1",
    "experimental.result": "> 5.70"
  },
  {
    "structure.notation": "Cc1ccc(CC(=O)N2CCc3cc(S(=O)(=O)Nc4nccs4)ccc32)cc1",
    "experimental.result": "> 5.70"
  }
]

---

- test.system: NaV1.3 (Homo sapiens, UniProt Q9NY46)
- Sequence (Q9NY46 whole entry): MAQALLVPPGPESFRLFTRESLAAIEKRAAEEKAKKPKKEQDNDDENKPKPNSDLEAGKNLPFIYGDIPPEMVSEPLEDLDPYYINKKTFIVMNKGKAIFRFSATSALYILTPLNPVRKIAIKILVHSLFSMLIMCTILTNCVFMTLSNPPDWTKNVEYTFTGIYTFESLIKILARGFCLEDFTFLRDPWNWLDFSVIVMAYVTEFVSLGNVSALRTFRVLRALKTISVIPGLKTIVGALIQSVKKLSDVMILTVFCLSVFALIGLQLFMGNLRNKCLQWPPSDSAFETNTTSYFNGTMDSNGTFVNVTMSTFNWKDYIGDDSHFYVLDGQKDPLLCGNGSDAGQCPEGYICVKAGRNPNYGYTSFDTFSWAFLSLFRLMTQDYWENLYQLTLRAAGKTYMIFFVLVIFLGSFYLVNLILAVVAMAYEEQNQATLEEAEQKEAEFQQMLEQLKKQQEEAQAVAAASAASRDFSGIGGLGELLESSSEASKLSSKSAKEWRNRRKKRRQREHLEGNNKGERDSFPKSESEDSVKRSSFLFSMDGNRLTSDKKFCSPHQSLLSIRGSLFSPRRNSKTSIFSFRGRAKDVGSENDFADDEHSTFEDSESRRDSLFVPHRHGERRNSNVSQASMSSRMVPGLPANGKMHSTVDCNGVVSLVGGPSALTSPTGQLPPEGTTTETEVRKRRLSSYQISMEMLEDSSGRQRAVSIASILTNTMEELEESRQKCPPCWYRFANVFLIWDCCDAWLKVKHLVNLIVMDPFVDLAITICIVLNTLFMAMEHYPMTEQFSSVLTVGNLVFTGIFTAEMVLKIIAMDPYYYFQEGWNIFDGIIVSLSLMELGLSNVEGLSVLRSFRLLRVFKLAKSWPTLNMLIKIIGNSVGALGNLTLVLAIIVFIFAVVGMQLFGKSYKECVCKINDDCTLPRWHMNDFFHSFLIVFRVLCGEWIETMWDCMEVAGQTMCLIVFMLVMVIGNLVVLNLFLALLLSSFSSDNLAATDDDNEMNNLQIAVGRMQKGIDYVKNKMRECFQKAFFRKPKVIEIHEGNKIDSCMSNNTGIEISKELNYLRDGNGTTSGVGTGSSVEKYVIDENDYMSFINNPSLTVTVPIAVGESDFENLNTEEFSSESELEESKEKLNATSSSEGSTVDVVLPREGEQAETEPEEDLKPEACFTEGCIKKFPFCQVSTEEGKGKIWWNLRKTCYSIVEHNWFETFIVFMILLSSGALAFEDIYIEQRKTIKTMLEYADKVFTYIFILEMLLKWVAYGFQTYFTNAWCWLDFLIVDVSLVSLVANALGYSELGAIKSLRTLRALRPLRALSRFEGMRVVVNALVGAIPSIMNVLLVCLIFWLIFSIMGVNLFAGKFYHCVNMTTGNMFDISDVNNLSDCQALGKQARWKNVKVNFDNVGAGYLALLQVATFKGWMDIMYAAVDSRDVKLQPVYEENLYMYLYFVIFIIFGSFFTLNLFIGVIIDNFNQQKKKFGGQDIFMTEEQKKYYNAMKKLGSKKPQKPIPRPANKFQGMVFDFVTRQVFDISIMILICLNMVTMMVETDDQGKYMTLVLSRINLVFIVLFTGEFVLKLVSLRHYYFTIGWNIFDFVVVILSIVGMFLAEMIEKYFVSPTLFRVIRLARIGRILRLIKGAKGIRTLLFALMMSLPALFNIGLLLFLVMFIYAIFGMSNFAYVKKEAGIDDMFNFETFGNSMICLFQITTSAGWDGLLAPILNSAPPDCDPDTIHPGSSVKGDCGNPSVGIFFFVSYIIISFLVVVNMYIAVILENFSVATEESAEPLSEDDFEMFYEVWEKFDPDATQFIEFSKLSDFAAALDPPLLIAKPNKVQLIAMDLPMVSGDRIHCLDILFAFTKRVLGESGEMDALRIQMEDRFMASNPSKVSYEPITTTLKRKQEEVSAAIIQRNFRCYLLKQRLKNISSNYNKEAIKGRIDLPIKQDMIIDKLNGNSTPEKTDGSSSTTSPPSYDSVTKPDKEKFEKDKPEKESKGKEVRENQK
- assay.notes: VIPR optical membrane potential assay, NaV1.3 inhibition
- Type: cell-based
- Parameters: expressed in transfected cells; host or cells: HEK293
- condition.set: activity against NaV 1.3 channel
IC50: recorded values

[
  {
    "compound": "Cc1ccc(C(=O)n2ccc3cc(S(=O)(=O)Nc4nccs4)ccc32)cc1Cl",
    "IC50": "> 5 µM"
  },
  {
    "compound": "COc1ccc(CCC(=O)N2CCc3cc(S(=O)(=O)Nc4nccs4)ccc32)cc1",
    "IC50": "< 2 µM"
  },
  {
    "compound": "CC(Oc1ccccc1)C(=O)N1CCCc2cc(S(=O)(=O)Nc3nccs3)ccc21 (centres unmarked)",
    "IC50": "> 5 µM"
  },
  {
    "compound": "O=C(CN1CCC(F)(F)CC1)N1CCCc2cc(S(=O)(=O)Nc3nccs3)ccc21",
    "IC50": "> 5 µM"
  },
  {
    "compound": "COc1ccc(CC(=O)N2CCc3cc(S(=O)(=O)Nc4nccs4)ccc32)cc1",
    "IC50": "< 2 µM"
  },
  {
    "compound": "O=C(c1ccc(Cl)cc1Cl)N1CCc2ccc(S(=O)(=O)Nc3nccs3)cc2C1",
    "IC50": "2 to 5 µM"
  },
  {
    "compound": "Cc1nnc(NS(=O)(=O)c2ccc3c(c2)CN(C(=O)[C@@H](C)N2CCCc4cc(Cl)ccc42)C3)s1",
    "IC50": "2 to 5 µM"
  },
  {
    "compound": "Cc1ccc(C(=O)n2ccc3cc(S(=O)(=O)Nc4nccs4)ccc32)cc1F",
    "IC50": "< 2 µM"
  },
  {
    "compound": "O=C(CN1CCCc2cc(Cl)ccc21)N1Cc2ccc(S(=O)(=O)Nc3ncns3)cc2C1",
    "IC50": "< 2 µM"
  },
  {
    "compound": "O=C(c1cc(Cl)ccc1Cl)N1CCc2cc(S(=O)(=O)Nc3nccs3)ccc21",
    "IC50": "< 2 µM"
  },
  {
    "compound": "CC(Oc1ccccc1Cl)C(=O)n1ccc2cc(S(=O)(=O)Nc3nccs3)ccc21 (centres unmarked)",
    "IC50": "2 to 5 µM"
  },
  {
    "compound": "CN(CC(=O)N1CCc2cc(S(=O)(=O)Nc3nccs3)ccc21)c1ccncc1",
    "IC50": "> 5 µM"
  },
  {
    "compound": "COc1cc(NCC(=O)N2CCc3cc(S(=O)(=O)Nc4nccs4)ccc32)cc(OC)c1",
    "IC50": "> 5 µM"
  },
  {
    "compound": "O=C(Oc1cccc(C(F)(F)F)c1)N1CCc2cc(S(=O)(=O)Nc3nccs3)ccc21",
    "IC50": "2 to 5 µM"
  },
  {
    "compound": "Cc1ccc(OCC(=O)N2CCc3cc(S(=O)(=O)Nc4nccs4)ccc32)cc1",
    "IC50": "< 2 µM"
  },
  {
    "compound": "O=C(Cc1ccc(C(F)(F)F)cc1)N1CCc2cc(S(=O)(=O)Nc3nccs3)ccc21",
    "IC50": "< 2 µM"
  },
  {
    "compound": "O=S(=O)(Nc1nccs1)c1ccc2c(c1)CCN2CCNc1nc2ccccc2s1",
    "IC50": "> 5 µM"
  }
]

---

IC50: recorded values
- test.system: NaV1.3 (Homo sapiens)
- assay.notes: VIPR optical membrane potential assay, NaV1.3 inhibition
- Assay type: cell-based
- Parameters: expressed in transfected cells; host or cells: HEK293
- condition.set: activity against NaV 1.3 channel

[
  {
    "compound": "C[C@H](C(=O)N1CCc2cc(S(=O)(=O)Nc3ncns3)ccc21)n1ccc2c(F)cccc21",
    "test.system": "NaV1.3 (Homo sapiens)",
    "IC50": "< 2 µM"
  },
  {
    "compound": "CC1CN(CC(=O)N2CCc3cc(S(=O)(=O)Nc4nccs4)ccc32)CC(C)O1 (stereo not shown)",
    "test.system": "NaV1.3 (Homo sapiens)",
    "IC50": "> 5 µM"
  },
  {
    "compound": "O=C(CNc1cccc(F)c1)N1CCc2cc(S(=O)(=O)Nc3nccs3)ccc21",
    "test.system": "NaV1.3 (Homo sapiens)",
    "IC50": "< 2 µM"
  },
  {
    "compound": "O=C(COc1ccc(Cl)cc1Cl)n1ccc2cc(S(=O)(=O)Nc3nccs3)ccc21",
    "test.system": "NaV1.3 (Homo sapiens)",
    "IC50": "2 to 5 µM"
  },
  {
    "compound": "CC(Oc1cccc(Cl)c1)C(=O)N1CCc2ccc(S(=O)(=O)Nc3nccs3)cc2C1 (stereo not shown)",
    "test.system": "NaV1.3 (Homo sapiens)",
    "IC50": "2 to 5 µM"
  },
  {
    "compound": "CC1CCCN(CC(=O)N2CCc3cc(S(=O)(=O)Nc4nccs4)ccc32)C1 (stereo not shown)",
    "test.system": "NaV1.3 (Homo sapiens)",
    "IC50": "> 5 µM"
  },
  {
    "compound": "COc1cc(C(=O)n2ccc3cc(S(=O)(=O)Nc4nccs4)ccc32)ccc1C",
    "test.system": "NaV1.3 (Homo sapiens)",
    "IC50": "2 to 5 µM"
  },
  {
    "compound": "O=C(Cc1ccc(OC(F)(F)F)cc1)N1CCc2cc(S(=O)(=O)Nc3nccs3)ccc21",
    "test.system": "NaV1.3 (Homo sapiens)",
    "IC50": "< 2 µM"
  },
  {
    "compound": "O=C(CCn1ccc2cc(Cl)ccc21)N1CCc2ccc(S(=O)(=O)Nc3nccs3)cc2C1",
    "test.system": "NaV1.3 (Homo sapiens)",
    "IC50": "< 2 µM"
  },
  {
    "compound": "Cc1ccc2c(c1)CCCN2CC(=O)N1CCc2cc(S(=O)(=O)Nc3nccs3)ccc21",
    "test.system": "NaV1.3 (Homo sapiens)",
    "IC50": "2 to 5 µM"
  },
  {
    "compound": "C[C@@H](C(=O)N1CCc2cc(S(=O)(=O)Nc3ncns3)ccc21)n1ccc2c(F)cccc21",
    "test.system": "NaV1.3 (Homo sapiens)",
    "IC50": "< 2 µM"
  },
  {
    "compound": "O=C(COc1ccnc2c(C(F)(F)F)cccc12)N1CCc2cc(S(=O)(=O)Nc3ncns3)ccc21",
    "test.system": "NaV1.3 (Homo sapiens)",
    "IC50": "< 2 µM"
  },
  {
    "compound": "O=C(CNc1ccc(C(F)(F)F)cc1)N1CCc2cc(S(=O)(=O)Nc3nccs3)ccc21",
    "test.system": "NaV1.3 (Homo sapiens)",
    "IC50": "2 to 5 µM"
  },
  {
    "compound": "O=C(CCCOc1ccc(Cl)cc1Cl)N1CCc2cc(S(=O)(=O)Nc3ncns3)ccc21",
    "test.system": "NaV1.3 (Homo sapiens)",
    "IC50": "< 2 µM"
  },
  {
    "compound": "O=C(COc1cccnc1)N1CCc2cc(S(=O)(=O)Nc3nccs3)ccc21",
    "test.system": "NaV1.3 (Homo sapiens)",
    "IC50": "> 5 µM"
  },
  {
    "compound": "O=C(CN1CCC(F)(F)C1)N1CCCc2cc(S(=O)(=O)Nc3nccs3)ccc21",
    "test.system": "NaV1.3 (Homo sapiens)",
    "IC50": "> 5 µM"
  }
]
